# maps each entry to its viability at 24 h, 5 ug/ml
protocol-details: Cytotoxicity against human Hep2 cells assessed as cell survival at 5 ug/ml after 24 hrs by trypan blue exclusion test (reference value: 87 to 94%)
Assay type: cell-based, HEp-2
assay-setup: read-out: Survival
Dear colleague, please send the value followed by its unit.

Check out these entries, answers already filled in.
>  <smiles-repr>
C/C(CC(C)C)=N\N=C1/SCC(=O)N1CN1C(=O)c2ccccc2C1=O

>  <viability at 24 h, 5 ug/ml>
90%

$$$$
>  <smiles-repr>
CC(C)=N/N=C1\SCC(=O)N1CN1C(=O)c2ccccc2C1=O

>  <viability at 24 h, 5 ug/ml>
61%

$$$$
>  <smiles-repr>
C/C(CC(C)C)=N\N=C1/SCC(=O)N1Cc1cccc2ccccc12

>  <viability at 24 h, 5 ug/ml>
87.5%

$$$$
>  <smiles-repr>
CCCCC/C(C)=N/N=C1\SCC(=O)N1Cc1ccc([N+](=O)[O-])cc1

>  <viability at 24 h, 5 ug/ml>
87%

$$$$
>  <smiles-repr>
O=C1CS/C(=N\N=C2CCCC2)N1Cc1ccc([N+](=O)[O-])cc1

>  <viability at 24 h, 5 ug/ml>
51%

$$$$

Next item in the queue.
Lookup: # get_value(readout='viability at 24 h, 5 ug/ml', item= `C/C(CC(C)C)=N\N=C1/SCC(=O)N1Cc1ccc([N+](=O)[O-])cc1` )
Found: 82%

----------
# maps each entry to its log10 of MIC
Tested on: Candida tropicalis
protocol-details: Antifungal activity against Candida tropicalis clinical isolate after 24 hrs by sabouraud dextrose broth based microdilution method
Assay type: functional
Scale type: logarithmic (base 10). Underlying MIC unit: µg/mL.

>  <molecule>
CC(=O)N1CCN(c2ccc(OCC3COC(Cn4ccnc4)(c4ccc(Cl)cc4Cl)O3)cc2)CC1 (stereo not given)

>  <log10 of MIC>
0.30

$$$$
>  <molecule>
C/C(=N\N=C1/SCC(=O)N1Cc1cccc2ccccc12)c1ccccc1

>  <log10 of MIC>
0.30

$$$$
>  <molecule>
O=C1c2ccccc2C(=O)N1CN1C(=O)CS/C1=N\N=C1CCCCCCC1

>  <log10 of MIC>
0.90

$$$$
>  <molecule>
CC1CC/C(=N\N=C2/SCC(=O)N2Cc2cccc3ccccc23)C1 (stereo not given)

>  <log10 of MIC>
2.11

$$$$
>  <molecule>
CC/C(C)=N/N=C1\SCC(=O)N1Cc1cccc2ccccc12

>  <log10 of MIC>
2.11

$$$$
>  <molecule>
CC1CCCC/C1=N\N=C1/SCC(=O)N1Cc1ccc([N+](=O)[O-])cc1 (stereo not given)

>  <log10 of MIC>
0.60

$$$$

Lookup: // fetch Candida tropicalis log10 of MIC for `CCCCCC/C(C)=N/N=C1\SCC(=O)N1Cc1ccc([N+](=O)[O-])cc1`
Found: 2.11

Lookup: // fetch Candida tropicalis log10 of MIC for CC1CCCC/C1=N\N=C1/SCC(=O)N1CN1C(=O)c2ccccc2C1=O (stereo not given)
Found: 0.30

Lookup: // fetch Candida tropicalis log10 of MIC for `O=C1c2ccccc2C(=O)N1CN1C(=O)CS/C1=N\N=C1CCCCC1`
Found: 0.90

Lookup: // fetch Candida tropicalis log10 of MIC for `CCCCC/C(C)=N/N=C1\SCC(=O)N1Cc1ccc([N+](=O)[O-])cc1`
Found: 1.81
